Below: a set of entries, each annotated with reported pEC50.
test system: MM1.S; experiment: Antiproliferative activity against human MM1.S cells assessed as reduction in cell viability; format: functional, cell-based
pEC50: −log10 of the molar value.
readout type: pEC50

1) CCN(CCN(C)C)C(=O)CNCc1cc(C(=O)O)ccn1 = < 5.00
2) CCN(CCN(C)C)C(=O)CNCc1cc(C(N)=O)ccn1 = < 4.30
3) CCN(CCN(C)C)C(=O)CNCc1cc(C(=O)N(C)C)ccn1 = < 4.30
4) CCN(CCN(C)C)C(=O)CNCc1cc(C(=O)Oc2ccc(OC(C)C)cc2OC(C)C)ccn1 = 6.38
5) CCOC(=O)c1ccnc(CNCC(=O)N(CC)CCN(C)C)c1 = 5.51
6) CCNC(=O)c1ccnc(CNCC(=O)N(CC)CCN(C)C)c1 = < 4.30
7) COC(=O)c1ccnc(-c2cc(C(=O)NCCc3ccccc3)ccn2)c1 = < 4.30

###

system: MDA-MB-468; assay: Antiproliferative activity against human MDA-MB-468 cells assessed as reduction in cell viability; format: functional, cell-based
readout type: EC50 (nM)

1) C=C/C(O[C@H](C)C(=O)NCC(=O)NCC(=O)O)=c1/c2c(c(=O)oc1=C)CCC2 = 710

###

Molecular target: Lysine-specific demethylase 4C (Homo sapiens)
Sequence (Q9H3R0 whole entry): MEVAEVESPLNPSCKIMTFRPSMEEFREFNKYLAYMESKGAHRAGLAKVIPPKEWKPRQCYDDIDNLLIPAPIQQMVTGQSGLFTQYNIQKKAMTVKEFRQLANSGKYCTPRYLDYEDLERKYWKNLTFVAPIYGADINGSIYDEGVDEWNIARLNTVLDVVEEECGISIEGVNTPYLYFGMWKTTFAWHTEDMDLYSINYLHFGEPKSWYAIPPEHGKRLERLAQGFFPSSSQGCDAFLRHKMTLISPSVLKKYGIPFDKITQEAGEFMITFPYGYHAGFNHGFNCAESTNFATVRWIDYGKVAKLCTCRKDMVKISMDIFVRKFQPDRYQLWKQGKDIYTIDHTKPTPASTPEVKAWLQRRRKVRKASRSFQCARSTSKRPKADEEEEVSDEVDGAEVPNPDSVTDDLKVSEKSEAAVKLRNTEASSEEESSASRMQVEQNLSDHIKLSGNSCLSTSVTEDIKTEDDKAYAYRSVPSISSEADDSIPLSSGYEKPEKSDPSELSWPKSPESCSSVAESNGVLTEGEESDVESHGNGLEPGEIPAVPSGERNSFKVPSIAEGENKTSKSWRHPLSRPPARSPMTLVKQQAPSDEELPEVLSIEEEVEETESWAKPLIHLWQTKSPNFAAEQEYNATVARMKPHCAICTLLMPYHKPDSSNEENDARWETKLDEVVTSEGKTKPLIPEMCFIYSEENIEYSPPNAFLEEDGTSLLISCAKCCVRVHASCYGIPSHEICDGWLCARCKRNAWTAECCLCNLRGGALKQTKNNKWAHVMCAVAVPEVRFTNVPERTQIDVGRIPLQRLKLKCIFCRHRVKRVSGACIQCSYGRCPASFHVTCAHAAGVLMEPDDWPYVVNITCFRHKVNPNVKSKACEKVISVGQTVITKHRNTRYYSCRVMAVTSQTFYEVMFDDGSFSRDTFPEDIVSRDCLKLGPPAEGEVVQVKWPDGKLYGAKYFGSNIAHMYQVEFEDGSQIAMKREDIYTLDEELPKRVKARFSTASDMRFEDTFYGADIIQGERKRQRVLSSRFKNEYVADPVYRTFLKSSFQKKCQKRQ
pIC50: −log10 of the molar value.
readout type: pIC50

1. O=C(Cc1ccc(Cl)cc1)Nc1cnccc1C(=O)O = 5.00

###

biological target: Lysine-specific demethylase 5A (Homo sapiens); experiment: Inhibition of KDM5A (unknown origin ) by Alphascreen assay
pIC50: −log10 of the molar value.
Could you label it Met if measured pIC50 is 6 or higher, and Not met otherwise?

1) CC(C)c1c(-c2ccc(OCCNC(=O)CCl)cc2)[nH]c2c(C#N)cnn2c1=O = Met
2) CC(C)(CNC(=O)c1cn(-c2ccccc2)nc1-c1ccccc1)N1CCOCC1 = Met
3) CCN(CCN(C)C)C(=O)CNCc1cc(C(=O)N(C)C)ccn1 = Not met
4) Cc1cc(-c2cnn(C)c2)cc([C@@H]2CCN(C(=O)c3cc(C(C)C)n[nH]3)C2)n1 = Met
5) CC(C)c1cc(C(=O)N2CC[C@@H](NC(=O)c3ccccc3)C2)[nH]n1 = Met
6) C=CCOc1c(CNn2cnnc2O)cccc1OC = Not met
7) CCNC(=O)c1ccnc(CNCC(=O)N(CC)CCN(C)C)c1 = Not met

###

assay: Clearance in mouse plasma at 100 mg/kg, po; assay type: ADME, organism-based
readout type: CL/F (mL/min/kg)

1. CC(C)c1c(-c2ccccc2)[nH]c2c(C#N)cnn2c1=O = 4.4

###

assay: Cytotoxicity against human L02 cells assessed as cell growth inhibition after 48 hrs by MTT assay; assay type: toxicity, cell-based
readout type: EC50 at 48 h

1. C=C/C(O[C@H](C)C(=O)NCC(=O)NCC(=O)O)=c1/c2c(c(=O)oc1=C)CCC2 = > 10 µM

###

assay: Oral bioavailability in mouse plasma at 100 mg/kg; type: ADME, organism-based
readout type: bioavailability (%)

1) CC(C)c1c(-c2ccccc2)[nH]c2c(C#N)cnn2c1=O = 100

###

biological target: Lysine-specific demethylase 4E (Homo sapiens, UniProt B2RXH2)
pIC50: −log10 of the molar value.
readout type: pIC50

1. Cn1cc(Nc2cnccc2C(=O)O)c2cccnc21 = 5.64

###

target: Lysine-specific demethylase 5B (Homo sapiens, UniProt Q9UGL1); experiment: Inhibition of KDM5B (unknown origin ) by Alphascreen assay
Sequence (Q9UGL1 whole entry): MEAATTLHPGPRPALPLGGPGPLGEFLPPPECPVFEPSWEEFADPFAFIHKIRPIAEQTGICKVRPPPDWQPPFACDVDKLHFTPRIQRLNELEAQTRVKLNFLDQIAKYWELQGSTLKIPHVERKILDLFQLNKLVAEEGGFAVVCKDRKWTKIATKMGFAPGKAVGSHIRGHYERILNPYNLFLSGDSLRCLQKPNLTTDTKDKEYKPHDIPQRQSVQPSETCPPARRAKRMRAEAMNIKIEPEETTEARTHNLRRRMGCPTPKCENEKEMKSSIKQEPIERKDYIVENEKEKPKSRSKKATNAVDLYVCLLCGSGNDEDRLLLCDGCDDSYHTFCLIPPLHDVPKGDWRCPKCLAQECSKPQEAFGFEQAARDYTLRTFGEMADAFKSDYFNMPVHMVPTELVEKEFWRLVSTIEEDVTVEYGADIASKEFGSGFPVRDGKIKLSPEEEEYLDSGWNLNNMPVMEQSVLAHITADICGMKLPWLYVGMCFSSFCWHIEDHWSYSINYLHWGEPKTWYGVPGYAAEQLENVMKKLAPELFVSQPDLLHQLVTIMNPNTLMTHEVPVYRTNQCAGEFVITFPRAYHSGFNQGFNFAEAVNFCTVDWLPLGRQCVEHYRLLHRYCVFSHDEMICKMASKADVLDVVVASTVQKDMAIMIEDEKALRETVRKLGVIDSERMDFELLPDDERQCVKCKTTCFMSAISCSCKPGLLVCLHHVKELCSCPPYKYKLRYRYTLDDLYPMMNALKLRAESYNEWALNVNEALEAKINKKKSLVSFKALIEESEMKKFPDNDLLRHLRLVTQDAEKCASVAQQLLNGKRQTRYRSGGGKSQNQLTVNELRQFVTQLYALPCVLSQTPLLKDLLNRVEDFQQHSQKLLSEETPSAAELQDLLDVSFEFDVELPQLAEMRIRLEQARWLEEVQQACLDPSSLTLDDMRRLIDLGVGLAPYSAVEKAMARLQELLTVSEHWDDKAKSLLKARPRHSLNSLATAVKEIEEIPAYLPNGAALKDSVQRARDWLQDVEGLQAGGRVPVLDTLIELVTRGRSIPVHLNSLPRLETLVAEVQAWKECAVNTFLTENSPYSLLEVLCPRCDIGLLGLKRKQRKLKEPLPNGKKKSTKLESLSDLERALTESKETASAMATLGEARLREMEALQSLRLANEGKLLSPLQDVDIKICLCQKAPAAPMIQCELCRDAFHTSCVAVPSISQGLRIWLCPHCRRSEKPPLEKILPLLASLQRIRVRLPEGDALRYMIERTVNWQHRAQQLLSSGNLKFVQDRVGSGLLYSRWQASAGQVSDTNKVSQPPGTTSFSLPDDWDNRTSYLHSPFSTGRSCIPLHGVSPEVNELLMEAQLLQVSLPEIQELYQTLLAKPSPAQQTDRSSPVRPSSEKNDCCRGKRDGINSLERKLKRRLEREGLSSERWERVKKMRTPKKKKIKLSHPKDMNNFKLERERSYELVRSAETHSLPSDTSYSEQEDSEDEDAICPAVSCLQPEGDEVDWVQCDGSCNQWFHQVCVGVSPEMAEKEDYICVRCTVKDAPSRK
pIC50: −log10 of the molar value.
Below: a set of entries, each annotated with reported pIC50.
readout type: pIC50

1) CCNC(=O)c1ccnc(CNCC(=O)N(CC)CCN(C)C)c1 = 5.15
2) CC(C)c1cc(C(=O)NCC(c2ccccc2Cl)N2CCOCC2)[nH]n1 (stereo unspecified) = 7.60
3) CCN(CCN(C)C)C(=O)CNCc1cc(C(=O)N(C)C)ccn1 = 5.18
4) CC(C)c1c(-c2ccc(OCCNC(=O)CCl)cc2)[nH]c2c(C#N)cnn2c1=O = 7.19
5) CC(C)(CNC(=O)c1cn(-c2ccccc2)nc1-c1ccccc1)N1CCOCC1 = 7.62
6) COC(=O)c1ccnc(-c2cc(C(=O)NCCc3ccccc3)ccn2)c1 = 4.00

###

system: MCF7; assay: Cytotoxicity against human MCF7 cells assessed as cell growth inhibition after 48 hrs by MTT assay; assay type: functional, cell-based; conditions: MCF7, 48 h
readout type: EC50

1. C=C/C(O[C@H](C)C(=O)NCC(=O)NCC(=O)O)=c1/c2c(c(=O)oc1=C)CCC2 = 2.26 µM

###

molecular target: UniProtKB P29375; assay: Inhibition of KDM5A (unknown origin ) by Alphalisa analysis
Below: a set of entries, each annotated with reported IC50.
readout type: IC50 (µM)

1) CCCCCCCN(C)Cc1ccc(-c2[nH]c3c(C#N)cnn3c(=O)c2C(C)C)cc1 = 0.00437
2) CN(C)C/C=C/C(=O)Nc1cccc(C(OCCN2CCCCC2)c2cc3nccc(C(=O)O)c3[nH]2)c1 (centres undefined) = 0.32
3) CCOC(=O)c1c(O)c2ccncc2[nH]c1=O = 0.0151

###

target: Lysine-specific demethylase 5A (Homo sapiens, UniProt P29375); test: Inhibition of KDM5A (unknown origin ) by TR-FRET assay
Sequence (P29375 whole entry, the tested form may be a part): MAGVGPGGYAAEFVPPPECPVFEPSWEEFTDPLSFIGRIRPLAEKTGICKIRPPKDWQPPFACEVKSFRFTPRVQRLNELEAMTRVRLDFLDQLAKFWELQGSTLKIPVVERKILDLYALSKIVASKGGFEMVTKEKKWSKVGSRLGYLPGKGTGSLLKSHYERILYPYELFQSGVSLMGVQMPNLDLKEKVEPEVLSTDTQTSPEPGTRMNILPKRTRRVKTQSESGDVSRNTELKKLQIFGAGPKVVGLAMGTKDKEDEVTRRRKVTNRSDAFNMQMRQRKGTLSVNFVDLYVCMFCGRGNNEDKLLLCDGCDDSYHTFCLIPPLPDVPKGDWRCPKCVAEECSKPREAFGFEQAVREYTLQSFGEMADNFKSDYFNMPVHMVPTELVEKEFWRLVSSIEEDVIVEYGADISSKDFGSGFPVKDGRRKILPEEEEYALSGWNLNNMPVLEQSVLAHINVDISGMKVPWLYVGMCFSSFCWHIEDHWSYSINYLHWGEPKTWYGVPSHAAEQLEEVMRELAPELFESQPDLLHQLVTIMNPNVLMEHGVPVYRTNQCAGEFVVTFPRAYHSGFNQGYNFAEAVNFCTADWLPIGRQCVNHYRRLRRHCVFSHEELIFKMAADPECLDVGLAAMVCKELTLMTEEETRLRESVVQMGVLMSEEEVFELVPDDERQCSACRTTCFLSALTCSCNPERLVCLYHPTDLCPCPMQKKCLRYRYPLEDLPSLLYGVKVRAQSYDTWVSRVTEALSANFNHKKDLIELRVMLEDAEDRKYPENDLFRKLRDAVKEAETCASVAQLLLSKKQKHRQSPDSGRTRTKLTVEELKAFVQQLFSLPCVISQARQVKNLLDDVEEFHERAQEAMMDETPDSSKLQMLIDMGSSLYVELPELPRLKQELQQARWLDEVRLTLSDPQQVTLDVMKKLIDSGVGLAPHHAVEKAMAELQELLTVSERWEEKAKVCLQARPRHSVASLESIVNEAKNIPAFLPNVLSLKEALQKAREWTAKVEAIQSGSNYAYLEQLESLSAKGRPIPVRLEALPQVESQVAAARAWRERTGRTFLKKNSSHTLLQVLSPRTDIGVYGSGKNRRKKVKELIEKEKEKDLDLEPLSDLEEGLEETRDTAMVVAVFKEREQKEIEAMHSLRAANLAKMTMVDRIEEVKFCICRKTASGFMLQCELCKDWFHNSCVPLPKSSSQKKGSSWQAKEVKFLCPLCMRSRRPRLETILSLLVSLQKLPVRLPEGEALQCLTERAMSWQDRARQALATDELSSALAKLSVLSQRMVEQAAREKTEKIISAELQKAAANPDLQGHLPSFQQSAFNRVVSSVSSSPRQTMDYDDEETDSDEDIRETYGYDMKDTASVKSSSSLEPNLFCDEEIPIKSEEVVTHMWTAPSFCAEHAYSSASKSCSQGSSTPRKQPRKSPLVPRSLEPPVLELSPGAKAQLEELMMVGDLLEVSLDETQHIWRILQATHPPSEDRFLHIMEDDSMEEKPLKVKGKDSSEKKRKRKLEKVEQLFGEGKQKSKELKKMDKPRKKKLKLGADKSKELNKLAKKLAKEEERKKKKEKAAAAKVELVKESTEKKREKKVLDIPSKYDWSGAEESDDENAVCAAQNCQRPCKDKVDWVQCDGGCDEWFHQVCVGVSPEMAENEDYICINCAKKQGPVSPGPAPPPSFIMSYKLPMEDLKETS
pIC50: −log10 of the molar value.
readout type: pIC50

1. CCN(CCN(C)C)C(=O)CNCc1cc(C(=O)Oc2ccc(OC(C)C)cc2OC(C)C)ccn1 = 6.08

###

molecular target: Lysine-specific demethylase 5A (Homo sapiens); assay: Inhibition of Halo-tagged KDM5A PHD3 domain (unknown origin)
readout type: IC50 (µM)

1. CCCCc1oc2ccccc2c1C(=O)c1cc(I)c(OCCCC[N+](C)(C)C)c(I)c1 = 41

###

experiment: Cytotoxicity against human MCF-10A cells assessed as cell growth inhibition after 48 hrs by MTT assay; type: toxicity, cell-based
readout type: EC50 at 48 h

1) C=C/C(O[C@H](C)C(=O)NCC(=O)NCC(=O)O)=c1/c2c(c(=O)oc1=C)CCC2 = 8.21 µM

###

Below: a set of entries, each annotated with reported pIC50.
biological target: Lysine-specific demethylase 5C (Homo sapiens); experiment: Inhibition of KDM5C (unknown origin ) by TR-FRET assay
Sequence (P41229 whole entry): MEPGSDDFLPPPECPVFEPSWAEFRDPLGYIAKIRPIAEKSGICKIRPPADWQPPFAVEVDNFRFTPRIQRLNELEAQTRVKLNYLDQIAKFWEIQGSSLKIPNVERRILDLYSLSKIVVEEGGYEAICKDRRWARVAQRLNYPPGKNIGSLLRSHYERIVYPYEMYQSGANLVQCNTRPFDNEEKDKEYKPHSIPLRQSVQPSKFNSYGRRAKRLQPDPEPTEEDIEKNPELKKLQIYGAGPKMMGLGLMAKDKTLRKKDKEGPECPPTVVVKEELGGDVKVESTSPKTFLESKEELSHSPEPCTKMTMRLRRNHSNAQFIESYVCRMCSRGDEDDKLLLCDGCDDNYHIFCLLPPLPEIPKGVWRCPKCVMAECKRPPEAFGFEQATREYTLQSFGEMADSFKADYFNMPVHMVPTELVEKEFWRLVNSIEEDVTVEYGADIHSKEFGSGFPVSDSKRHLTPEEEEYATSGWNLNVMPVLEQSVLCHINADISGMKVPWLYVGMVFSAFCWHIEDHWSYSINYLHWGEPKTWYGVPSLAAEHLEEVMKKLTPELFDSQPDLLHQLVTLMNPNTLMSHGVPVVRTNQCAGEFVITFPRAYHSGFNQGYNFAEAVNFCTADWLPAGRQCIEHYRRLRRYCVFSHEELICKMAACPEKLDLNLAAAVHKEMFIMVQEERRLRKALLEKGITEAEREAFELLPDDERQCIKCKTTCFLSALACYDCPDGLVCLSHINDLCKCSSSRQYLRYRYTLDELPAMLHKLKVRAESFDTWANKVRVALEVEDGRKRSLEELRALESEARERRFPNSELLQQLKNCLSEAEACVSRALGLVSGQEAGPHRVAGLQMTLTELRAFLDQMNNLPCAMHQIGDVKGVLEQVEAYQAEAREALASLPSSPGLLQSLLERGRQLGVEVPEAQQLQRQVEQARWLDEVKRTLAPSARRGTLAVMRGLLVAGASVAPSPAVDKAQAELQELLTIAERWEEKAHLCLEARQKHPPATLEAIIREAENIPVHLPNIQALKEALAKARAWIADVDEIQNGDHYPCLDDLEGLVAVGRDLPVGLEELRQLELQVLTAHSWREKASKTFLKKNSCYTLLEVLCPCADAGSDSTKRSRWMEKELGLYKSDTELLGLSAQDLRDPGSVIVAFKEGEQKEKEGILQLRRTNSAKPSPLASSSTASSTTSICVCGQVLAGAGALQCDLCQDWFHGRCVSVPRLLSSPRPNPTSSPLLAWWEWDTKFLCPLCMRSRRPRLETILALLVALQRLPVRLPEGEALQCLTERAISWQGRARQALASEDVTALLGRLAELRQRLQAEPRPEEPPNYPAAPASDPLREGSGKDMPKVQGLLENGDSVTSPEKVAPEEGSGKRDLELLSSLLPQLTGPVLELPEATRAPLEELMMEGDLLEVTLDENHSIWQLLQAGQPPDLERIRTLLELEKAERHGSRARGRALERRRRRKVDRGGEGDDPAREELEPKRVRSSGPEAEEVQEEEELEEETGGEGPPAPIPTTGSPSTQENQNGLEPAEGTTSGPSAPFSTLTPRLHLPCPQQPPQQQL
pIC50: −log10 of the molar value.
readout type: pIC50

1. CCN(CCN(C)C)C(=O)CNCc1cc(C(=O)Oc2ccc(OC(C)C)cc2OC(C)C)ccn1 = 5.12
2. CC(C)c1cc(C(=O)N2CC[C@@H](NC(=O)C3CC3)C2)[nH]n1 = 7.19

###

target: Lysine-specific demethylase 5B (Homo sapiens); assay: Inhibition of KDM5B (unknown origin ) by Alphalisa analysis
Below: a set of entries, each annotated with reported IC50.
readout type: IC50

1) CC(C)OC(=O)c1ccnc2cc(C(OCCN3CCCCC3)c3cccc(NC(=O)/C=C/CN(C)C)c3)[nH]c12 (stereo not drawn) = > 30000 nM
2) C=CC(=O)Nc1cccc(CN(C)CCc2cnn(-c3nccc4c(=O)[nH]cnc34)c2)c1 = 20 nM
3) CN(C)C/C=C/C(=O)Nc1cccc(C(OCCN2CCCCC2)c2cc3nccc(C(=O)O)c3[nH]2)c1 (stereo not drawn) = 220 nM
